# Test system: Escherichia coli
# TEST: Antibacterial activity against Escherichia coli CCM 3954 after 24 hrs by microdilution method
# Assay type: functional
# MEASUREMENT_CONDITIONS: CCM 3954, 24 h
Measured log10 of MIC values are reported for all entries that follow.
Answers are given as log10 of MIC in µg/mL.

See these solved cases before continuing.
COMPOUND	MEASURED_TARGET	OBSERVED
CCCCCCCCCCCCCOP(=O)(CCN(CCCNC(=N)N)CCCNC(=N)N)OC[C@H]1O[C@@H](n2ccc(=O)[nH]c2=O)[C@H](O)[C@@H]1O (some centres not stated)	Escherichia coli	1.10
CCCCCCCCCCCCCCCCOP(=O)(CCN(CCNC(=N)N)CCNC(=N)N)OC[C@H]1O[C@@H](n2ccc(=O)[nH]c2=O)[C@H](O)[C@@H]1O (some centres not stated)	Escherichia coli	0.50
CCCCCCCCCCCCCCOP(=O)(CCN(CCCN)CCCN)OC[C@H]1O[C@@H](n2ccc(=O)[nH]c2=O)[C@H](O)[C@@H]1O (some centres not stated)	Escherichia coli	0.80
CCCCCCCCCCCCCCCCOP(=O)(CCN(CCCN)CCCN)OC[C@H]1O[C@@H](n2ccc(=O)[nH]c2=O)[C@H](O)[C@@H]1O (some centres not stated)	Escherichia coli	0.50
CCCCCCCCCCCCCCCOP(=O)(CCN1C[C@@H](O)[C@@H](N)C1)OC[C@H]1O[C@@H](n2ccc(=O)[nH]c2=O)[C@H](O)[C@@H]1O (some centres not stated)	Escherichia coli	0.80

Consider the additional compound presented here.
Data request: Could you share which log10 of MIC value was measured for CCCCCCCCCCCCCCCCOP(=O)(CCN(CCN)CCN)OC[C@H]1O[C@@H](n2ccc(=O)[nH]c2=O)[C@H](O)[C@@H]1O (some centres not stated) ?
Data returned: 0.50

---

Overview of reported MIC across a group of compounds:
# Tested on: Staphylococcus haemolyticus
# TEST: Antibacterial activity against fluoroquinolne-resistant Staphylococcus haemolyticus 16568 after 24 hrs by microdilution method
# Assay type: functional
# MEASUREMENT_CONDITIONS: Staphylococcus haemolyticus, 16568, 24 h
The response must be a number in µg/mL with no trailing unit.

Solved cases (2 shown):
COMPOUND	VALUE_UNITS	MIC
CCCCCCCCCCCCCOP(=O)(CCN(CCCN)CCCN)OC[C@H]1O[C@@H](n2ccc(=O)[nH]c2=O)[C@H](O)[C@@H]1O (stereo partly drawn)	µg/mL	6.25
CCCCCCCCCCCCCCOP(=O)(CCN(CCCN)CCCN)OC[C@H]1O[C@@H](n2ccc(=O)[nH]c2=O)[C@H](O)[C@@H]1O (stereo partly drawn)	µg/mL	1.56

Please turn your attention to the following entry.
Data request: // lookup MIC | system=Staphylococcus haemolyticus | key= CCCCCCCCCCCCCCCCOP(=O)(CCN(CCN)CCN)OC[C@H]1O[C@@H](n2ccc(=O)[nH]c2=O)[C@H](O)[C@@H]1O (stereo partly drawn)
Data returned: 3.13

---

# MIC annotations
# System: Pseudomonas aeruginosa
# TEST: Antibacterial activity against Pseudomonas aeruginosa 16575 after 24 hrs by microdilution method
# Type: functional
# MEASUREMENT_CONDITIONS: Pseudomonas aeruginosa, 16575, 24 h
Answer format: numeric, µg/mL implied, no suffix.

A selection of reference data follows.
COMPOUND	MEASURED_TARGET	OBSERVED
CCCCCCCCCCCCOP(=O)(CCN(CCCN)CCCN)OC[C@H]1O[C@@H](n2ccc(=O)[nH]c2=O)[C@H](O)[C@@H]1O (stereo partly drawn)	Pseudomonas aeruginosa	50
CCCCCCCCCCCCCCOP(=O)(CCN(CCN)CCN)OC[C@H]1O[C@@H](n2ccc(=O)[nH]c2=O)[C@H](O)[C@@H]1O (stereo partly drawn)	Pseudomonas aeruginosa	6.25
CCCCCCCCCCCCCCCCOP(=O)(CCN(CCCNC(=N)N)CCCNC(=N)N)OC[C@H]1O[C@@H](n2ccc(=O)[nH]c2=O)[C@H](O)[C@@H]1O (stereo partly drawn)	Pseudomonas aeruginosa	3.13
CCCCCCCCCCCCCOP(=O)(CCN(CCCNC(=N)N)CCCNC(=N)N)OC[C@H]1O[C@@H](n2ccc(=O)[nH]c2=O)[C@H](O)[C@@H]1O (stereo partly drawn)	Pseudomonas aeruginosa	25
CCCCCCCCCCCCCCCCOP(=O)(CCN(CCNC(=N)N)CCNC(=N)N)OC[C@H]1O[C@@H](n2ccc(=O)[nH]c2=O)[C@H](O)[C@@H]1O (stereo partly drawn)	Pseudomonas aeruginosa	6.25

Data request: Requested read-out: MIC. Entry: CCCCCCCCCCCCCCOP(=O)(CCN1CCC(N)C1)OC[C@H]1O[C@@H](n2ccc(=O)[nH]c2=O)[C@H](O)[C@@H]1O (stereo partly drawn)
Data returned: 3.13

Data request: Also check CCCCCCCCCCCCCCOP(=O)(CCN(CCCN)CCCN)OC[C@H]1O[C@@H](n2ccc(=O)[nH]c2=O)[C@H](O)[C@@H]1O (stereo partly drawn)
Data returned: 1.56

Data request: // same read-out, input: CCCCCCCCCCCCCCCOP(=O)(CCN(CCCN)CCCN)OC[C@H]1O[C@@H](n2ccc(=O)[nH]c2=O)[C@H](O)[C@@H]1O (stereo partly drawn)
Data returned: 6.25
